So I've got a bunch of binders here, and I need their Relative Affinity for Ligand (%) values.
Biological target: T1, TNF-α (UniProt P01375 77-233, limits assumed)
T1 construct: also called tumor necrosis factor; ligand
T1 sequence (P01375 77-233 limits assumed): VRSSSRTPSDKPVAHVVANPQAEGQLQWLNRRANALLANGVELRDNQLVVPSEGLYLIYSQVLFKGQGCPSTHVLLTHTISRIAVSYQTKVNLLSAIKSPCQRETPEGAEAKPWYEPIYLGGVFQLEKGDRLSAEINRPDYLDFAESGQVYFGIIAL
Experiment: competition ELISA: sample vs plate-bound TNFRI190 for TNF-α, from IC50, relative to wild-type TNFRI126

Look up Relative Affinity for Ligand (%): TNFRI126-S59 (receptor, Met-TNFRI126 superlead mutant made in E. coli) MDSVCPQGKYIHPQNNSICCTKCHKGTYVYNDCPGPGQDTDCRECESGSFTAHENFLPACLSCSKCRKEMGQVEISSCTVDRDTVCGCRKNQYRHYWSENLFQCFNCSLCLNGTVHLSCQEQQNTVC
463%

Look up Relative Affinity for Ligand (%): TNFRI126-S53 (receptor, Met-TNFRI126 superlead mutant made in E. coli) MDSVCPQGKYIHPQNNSICCTKCHKGTYVYNDCPGPGQDTDCRECESGSFTAIENFLPACLSCSKCRKEMGQVEISSCTVDRDTVCGCRKNQYRHYWSENLFQCFNCSLCLNGTVHLSCQEQQNTVC
522%

Look up Relative Affinity for Ligand (%): TNFRI126-S62 (receptor, Met-TNFRI126 superlead mutant made in E. coli) MDSVCPQGKYIHPQNNSICCTKCHKGTYVYNDCPGPGQDTDCRECESGSFTAIENFLPGCLSCSKCRKEMGQVEISSCTVDRDTVCGCRKNQYRHYWSENLFQCFNCSLCLNGTVHLSCQEQQNTVC
543%
